B1: LINE1-mini (parent)
chain: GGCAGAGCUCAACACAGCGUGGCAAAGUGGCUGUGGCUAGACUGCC

variants of: B1; experiment: self-cleavage, relative activity (ratio to wild type); higher = more cleavage; in vitro, sequencing; the parent is a self-cleaving ribozyme
Would you mind labelling by self-cleavage? At or over 0.08 is Condition met, under is Condition not met.

GGCAGAGCUCAACACAGCGUGGCAAAGUGGCUGUGGCUAGCCUACC [A41C G44A] :: Condition not met
GGCAGAGCUCAACACUGCGUGGCAAAGUGGCUGUGGCUAUACUGCC [A16U G40U] :: Condition not met
GGCCGAGCUCAACACAGCGUGGCAAAGUGGCAGUGGCUAGACUGCC [A4C U32A] :: Condition met
GGCAGAGCUCAACACAGCGUGGCAAAGUGGGUGUGGCUUGACUGCC [C31G A39U] :: Condition not met
GGGAGAGCUCAACACAGCGUGGCAAAGUGGCUGUGGCUAGAUUGCC [C3G C42U] :: Condition met

**Query** Could you please find out whether GGCAGAGCUCAACACAGCGUGGGAAAGUGGCAGUGGCUAGACUGCC [C23G U32A] has self-cleavage that meets 0.08 or exceeds it?
**Result** Condition not met

**Query** Could you please find out whether GCCAGCGCUCAACACAGCGUGGCAAAGUGGCUGUGGCUAGACUGCC [G2C A6C] has self-cleavage that meets 0.08 or exceeds it?
**Result** Condition met

**Query** Could you please find out whether GGCAGAGCUCAACACAGCGUGGCACAGUCGCUGUGGCUAGACUGCC [A25C G29C] has self-cleavage that meets 0.08 or exceeds it?
**Result** Condition met

**Query** Could you please find out whether GGCAGAGCUCAACAUAGCGUGGCAAAGUGGCUGUGGCUAGACCGCC [C15U U43C] has self-cleavage that meets 0.08 or exceeds it?
**Result** Condition met

**Query** Could you please find out whether GGCAGAGCGCAACACAGCGUGGCAAAGUGUCUGUGGCUAGACUGCC [U9G G30U] has self-cleavage that meets 0.08 or exceeds it?
**Result** Condition met

**Query** Could you please find out whether GGCAGAGCUCAACACAGCCUGGCAAAGUGGCCGUGGCUAGACUGCC [G19C U32C] has self-cleavage that meets 0.08 or exceeds it?
**Result** Condition met

**Query** Could you please find out whether GGCAGAGCCCAACACAGCGUGGCAAAGUGGCUGUGGCUAGACUGAC [U9C C45A] has self-cleavage that meets 0.08 or exceeds it?
**Result** Condition not met

**Query** Could you please find out whether AGCAGACCUCAACACAGCGUGGCAAAGUGGCUGUGGCUAGACUGCC [G1A G7C] has self-cleavage that meets 0.08 or exceeds it?
**Result** Condition met

**Query** Could you please find out whether GGCAGAGCUCAACACAGCGGGGCAAAGUGGCUGUGGCUAGACUCCC [U20G G44C] has self-cleavage that meets 0.08 or exceeds it?
**Result** Condition met

**Query** Could you please find out whether GGAAGAGCUCAACACAGGGUGGCAAAGUGGCUGUGGCUAGACUGCC [C3A C18G] has self-cleavage that meets 0.08 or exceeds it?
**Result** Condition met

**Query** Could you please find out whether GGCAGAGCUCAACACAGCGUGGGAAAGUGGCGGUGGCUAGACUGCC [C23G U32G] has self-cleavage that meets 0.08 or exceeds it?
**Result** Condition met

**Query** Could you please find out whether GACAGAGCUCAACACAGCGUGGCAAAGUGGCUCUGGCUAGACUGCC [G2A G33C] has self-cleavage that meets 0.08 or exceeds it?
**Result** Condition not met

**Query** Could you please find out whether GGCCGAGCUCAACACAGCGUGGCAAAGUGGCUGUGGCUAGACUGCU [A4C C46U] has self-cleavage that meets 0.08 or exceeds it?
**Result** Condition met

**Query** Could you please find out whether GGCAGAGCUCAACACAUCGUGCCAAAGUGGCUGUGGCUAGACUGCC [G17U G22C] has self-cleavage that meets 0.08 or exceeds it?
**Result** Condition met

**Query** Could you please find out whether GGCAGAGCUCAACACAGCGUGGCAAAUUGGCUGUGGGUAGACUGCC [G27U C37G] has self-cleavage that meets 0.08 or exceeds it?
**Result** Condition not met

**Query** Could you please find out whether GGCAGAGUUCAACACAGCGUGGCAAAAUGGCUGUGGCUAGACUGCC [C8U G27A] has self-cleavage that meets 0.08 or exceeds it?
**Result** Condition met

**Query** Could you please find out whether GGCAGAGGUCAACACAGCUUGGCAAAGUGGCUGUGGCUAGACUGCC [C8G G19U] has self-cleavage that meets 0.08 or exceeds it?
**Result** Condition not met

**Query** Could you please find out whether GACAGAGCUCAACACAGCGUGGCAAAGUGGCUUUGGCUAGACUGCC [G2A G33U] has self-cleavage that meets 0.08 or exceeds it?
**Result** Condition met

**Query** Could you please find out whether GGCAGACCUCAUCACAGCGUGGCAAAGUGGCUGUGGCUAGACUGCC [G7C A12U] has self-cleavage that meets 0.08 or exceeds it?
**Result** Condition not met

**Query** Could you please find out whether GGCAGAGCUCAACAUAGCGUGGCAAGGUGGCUGUGGCUAGACUGCC [C15U A26G] has self-cleavage that meets 0.08 or exceeds it?
**Result** Condition met

**Query** Could you please find out whether GGCAGAGCUCAACAUAGCGUGGCAAAGUGCCUGUGGCUAGACUGCC [C15U G30C] has self-cleavage that meets 0.08 or exceeds it?
**Result** Condition met

**Query** Could you please find out whether GGCAGAGCUCAACACAGCGUGGCAAAGUUGCUGUGGCUAGUCUGCC [G29U A41U] has self-cleavage that meets 0.08 or exceeds it?
**Result** Condition met

**Query** Could you please find out whether UGCAGAGCUCAACACAGCGUGGCAAACUGGCUGUGGCUAGACUGCC [G1U G27C] has self-cleavage that meets 0.08 or exceeds it?
**Result** Condition met
